Catalogue of EC50 at 48 h values
experiment: Toxicity in mouse MIN6 cells assessed by dehydrogenase activity measured after 48 hrs by CCK-8 assay; type: cell-based
Write down the numeric answer in µM and omit the unit.

COc1c(C)c2c(c(OCc3ccc([N+](=O)[O-])cc3)c1C/C=C(\C)CCC(=O)O)C(=O)OC2 :: 24

Exercise: Fill in: EC50 at 48 h of COc1c(C)c2c(c(O)c1C/C=C(\C)CCC(=O)O)C(=O)OC2 [MYCOPHENOLIC ACID] is ___
Solution: 0.6

###

assay: Toxicity in human hepatocytes assessed by dehydrogenase activity measured after 48 hrs by CCK-8 assay; format: cell-based, Hepatocyte
Threshold 8 µM: EC50 at 48 h strictly smaller gives Met, otherwise Not met.

Use these answered entries as a reference point.
COc1c(C)c2c(c(OCc3ccc([N+](=O)[O-])cc3)c1C/C=C(\C)CCC(=O)O)C(=O)OC2 :: Not met
C#CCOC(=O)CC/C(C)=C/Cc1c(OC)c(C)c2c(c1OCC#C)C(=O)OC2 :: Met
COc1c(C)c2c(c(O)c1C/C=C(\C)CCC(=O)O)C(=O)OC2 :: Met

Exercise: Does the reported EC50 at 48 h of the following compound sit strictly below 8 µM? `C#CCOc1c(C/C=C(\C)CCC(=O)O)c(OC)c(C)c2c1C(=O)OC2`
Solution: Not met

Exercise: Same question, `COc1c(C)c2c(c(OCc3ccc([N+](=O)[O-])cc3)c1C/C=C(\C)CCC(=O)OCc1ccc([N+](=O)[O-])cc1)C(=O)OC2` this time
Solution: Not met

###

target: Inosine-5'-monophosphate dehydrogenase 2 (Homo sapiens) (UniProt P12268); assay: Inhibition of IMPDH2 (unknown origin) assessed by conversion of NAD+ to NADH preincubated for 30 mins followed by addition of inosine-5'- monophosphate substrate and NAD at 10 uM measured by plate reader method
Sequence (P12268 2-514 limits assumed): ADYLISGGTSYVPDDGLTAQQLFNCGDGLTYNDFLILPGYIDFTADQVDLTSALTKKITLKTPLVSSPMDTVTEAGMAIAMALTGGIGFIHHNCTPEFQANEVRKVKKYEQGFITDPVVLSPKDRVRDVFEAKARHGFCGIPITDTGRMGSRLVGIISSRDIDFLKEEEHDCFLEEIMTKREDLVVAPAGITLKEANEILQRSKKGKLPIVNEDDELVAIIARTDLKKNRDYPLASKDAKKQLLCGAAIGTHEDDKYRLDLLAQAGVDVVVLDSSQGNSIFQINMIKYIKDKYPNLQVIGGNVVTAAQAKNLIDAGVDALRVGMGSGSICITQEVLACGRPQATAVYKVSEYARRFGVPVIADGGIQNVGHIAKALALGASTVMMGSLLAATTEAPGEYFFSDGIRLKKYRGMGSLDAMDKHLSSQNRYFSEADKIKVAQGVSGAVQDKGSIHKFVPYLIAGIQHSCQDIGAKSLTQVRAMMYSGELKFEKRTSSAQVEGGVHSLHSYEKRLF
The source made the active and inactive calls. No cut-off for these calls is given here.
Hi there, use one of these labels in your reply, thanks! active, inactive

C#CCOC(=O)CC/C(C)=C/Cc1c(OC)c(C)c2c(c1OCC#C)C(=O)OC2 :: inactive
C#CCOc1c(C/C=C(\C)CCC(=O)O)c(OC)c(C)c2c1C(=O)OC2 :: inactive
COc1c(C)c2c(c(O)c1C/C=C(\C)CCC(=O)O)C(=O)OC2 [MYCOPHENOLIC ACID] :: active
COc1c(C)c2c(c(OCc3ccc([N+](=O)[O-])cc3)c1C/C=C(\C)CCC(=O)O)C(=O)OC2 :: inactive

// switching to the query molecule
Exercise: Identify the outcome logged in this assay for the molecule shown: `COc1c(C)c2c(c(OCc3ccc([N+](=O)[O-])cc3)c1C/C=C(\C)CCC(=O)OCc1ccc([N+](=O)[O-])cc1)C(=O)OC2`
Solution: inactive
